- Assayed target: KCNT1 (KNa1.1, Slack) (Homo sapiens)
- Sequence (Q5JUK3 whole entry): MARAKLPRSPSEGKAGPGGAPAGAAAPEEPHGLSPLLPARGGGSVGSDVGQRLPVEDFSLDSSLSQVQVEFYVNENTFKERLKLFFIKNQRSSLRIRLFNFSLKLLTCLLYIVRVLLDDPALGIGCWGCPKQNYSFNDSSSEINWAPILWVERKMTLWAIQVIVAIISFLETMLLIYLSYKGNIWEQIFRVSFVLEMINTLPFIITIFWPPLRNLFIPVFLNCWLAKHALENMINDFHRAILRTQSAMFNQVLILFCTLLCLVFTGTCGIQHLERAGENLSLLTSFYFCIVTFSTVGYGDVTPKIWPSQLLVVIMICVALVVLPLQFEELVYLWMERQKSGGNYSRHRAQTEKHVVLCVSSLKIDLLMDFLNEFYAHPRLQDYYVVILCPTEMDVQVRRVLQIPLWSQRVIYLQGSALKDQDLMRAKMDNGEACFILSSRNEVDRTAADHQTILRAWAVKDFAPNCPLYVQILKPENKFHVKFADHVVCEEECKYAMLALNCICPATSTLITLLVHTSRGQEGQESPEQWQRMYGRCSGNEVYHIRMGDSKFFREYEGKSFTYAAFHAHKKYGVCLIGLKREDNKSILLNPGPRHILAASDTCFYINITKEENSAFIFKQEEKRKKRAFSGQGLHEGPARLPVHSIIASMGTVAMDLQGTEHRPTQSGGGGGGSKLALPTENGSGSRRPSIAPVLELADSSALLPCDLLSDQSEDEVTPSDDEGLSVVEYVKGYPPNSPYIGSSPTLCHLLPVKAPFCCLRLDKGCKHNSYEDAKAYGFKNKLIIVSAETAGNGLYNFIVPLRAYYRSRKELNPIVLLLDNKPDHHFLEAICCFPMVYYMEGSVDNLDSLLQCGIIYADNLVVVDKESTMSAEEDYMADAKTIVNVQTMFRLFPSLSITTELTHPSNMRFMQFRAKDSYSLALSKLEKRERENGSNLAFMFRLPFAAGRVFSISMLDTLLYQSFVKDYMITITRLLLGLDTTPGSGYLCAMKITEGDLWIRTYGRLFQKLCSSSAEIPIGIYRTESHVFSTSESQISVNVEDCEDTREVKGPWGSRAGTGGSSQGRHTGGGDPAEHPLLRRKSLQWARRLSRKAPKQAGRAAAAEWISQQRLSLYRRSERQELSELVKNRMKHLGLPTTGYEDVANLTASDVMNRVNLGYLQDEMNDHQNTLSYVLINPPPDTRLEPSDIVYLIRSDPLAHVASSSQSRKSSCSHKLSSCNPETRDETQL
- Experiment notes: KCNT1-WT-Basal patch clamp assay (SyncroPatch 384PE, HEK-TREX inducible cell line)
- Recorded conditions: tetracycline inducible HEK-TREX cells; perforated patch; holding -80 mV, 100 ms step to 0 mV; room temperature; read-out: KCNT1 WB IC50
pIC50: −log10 of the molar value.
# key: entry, value: pIC50

Record excerpt, results attached:
- O=C(N[C@@H]1CCc2cc(Cl)ccc21)c1ccc(F)cc1 (single isomer, unassigned) [Compound II-31]: ≤ 4.70
- O=C(N[C@@H]1CCc2cc(Cl)ccc21)c1ccc(S(=O)(=O)N2CC[C@H](O)C2)s1 [Compound I-41]: ≥ 6.00
- CS(=O)(=O)c1ccc(C(=O)N[C@@H]2CCCc3cc(Cl)ccc32)s1 (single isomer, unassigned) [Compound I-25]: ≤ 4.70
- CS(=O)(=O)Nc1ccc(C(=O)NC2CCc3cc(F)ccc32)cc1 (single isomer, unassigned) [Compound II-57]: 4.70 to 6.00
- O=C(N[C@@H]1CCc2cc(Cl)ccc21)c1cccc(C(F)(F)F)c1O [Compound III-10]: ≥ 6.00
- COCCN(c1ccc(C(=O)N[C@@H]2CCc3cc(Cl)ccc32)cc1)S(C)(=O)=O [Compound II-43]: 4.70 to 6.00
- CN(c1ccc(C(=O)NC2CCc3cc(Cl)ccc32)cc1)S(C)(=O)=O (single isomer, unassigned) [Compound II-2]: ≥ 6.00
- CS(=O)(=O)c1ccc(C(=O)N[C@H]2CCCc3cc(Cl)ccc32)cc1 (single isomer, unassigned) [Compound II-55]: 4.70 to 6.00

// next item, pIC50 requested
What measured pIC50 is associated with O=C(N[C@@H]1CCc2cc(Cl)ccc21)c1cc(F)ccc1O [Compound III-6] on KCNT1 (KNa1.1, Slack) (Homo sapiens)?
≥ 6.00
